# Tested on: Hepatitis C virus NS3 helicase
# assayInfo: inhibitors of HCV NS3 helicase, primary screen, biochemical, Cy5 molecular beacon fluorescence (AID 1800);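 further: 0% = DMSO wells and 100% = thioflavine S control wells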
# measurementParameters: NS3 helicase DNA unwinding, at 10.9 µM
Out of some 290,000 compounds screened, about 1,600 (0.55%) were called active.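 How the source made its calls: active means inhibition above the mean of all tested compounds plus 3 SD, set per campaign (cut at about 35% in these data); inactive means the rest.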 The list comes from a sample in which actives are over-represented; it also holds close analogues and randomly drawn compounds.
Could you please pick one outcome from this set? 1 for active, -1 for inactive

Some solved cases for reference:
{"compound": "COC(=O)C1=C(O)/C(=C/c2ccc(OCC(=O)Nc3ccccc3)cc2)N=C1C", "className": -1}
{"compound": "O=C(NCc1ccccc1)C(=O)NCC1OCCN1S(=O)(=O)c1ccc(Br)cc1 (stereo unspecified)", "className": -1}
{"compound": "O=C(CSCc1ccccc1)Nc1ccccc1", "className": -1}
{"compound": "O=C(CCCN1CCc2[nH]c3ccc(F)cc3c2C1)c1ccc(F)cc1", "className": -1}

Hi team, can someone confirm the assay call for O=C(Oc1ccc([N+](=O)[O-])cc1)c1ccc(Cl)c(S(=O)(=O)N2CCCCC2)c1 ?
-1

Could you kindly confirm the outcome this assay logged for Cc1ccc(Nc2ncnc3c2cnn3C)c(C)c1 ?
-1

Hi team, can someone confirm the assay call for Cc1cccc(NC(=O)c2ccc3c(=O)n(CC4CCCO4)c(=S)[nH]c3c2)c1 (stereo unspecified) ?
-1

Recorded test call requested for COCCN(C(=O)CCC(=O)Nc1ccccn1)C(C(=O)NCCC(C)C)c1ccc(OC)cc1 (stereo unspecified)
-1

Returns: the outcome recorded for CN(C)[C@@H]1C(=O)C(C(N)=O)=C(O)[C@@]2(O)C(=O)C3=C(O)c4c(O)ccc(Cl)c4[C@@H](O)[C@H]3C[C@@H]12 in this assay.
1

In this assay, the call recorded for CC(=O)N1c2ccc(S(=O)(=O)N(C)CC(=O)N(C)Cc3ccccc3)cc2CC1C (stereo unspecified) was what?
-1

Given Cc1c(NC(=O)Nc2cccc([N+](=O)[O-])c2)c(=O)n(-c2ccccc2)n1C , state the outcome it received in this test.
-1

Recorded test outcome, item COc1ccc(C)cc1N(CC(=O)N1CCCC1)S(=O)(=O)c1ccccc1
-1

Please let me know the test result on file for O=C(O)c1ccc(/C=N/Nc2nc(N3CCCCC3)nc(N3CCCCC3)n2)cc1 .
-1

State the result this test recorded for COc1ccccc1CCCNC(=O)C1CCC(=O)N(CCN2CCOCC2)C1 (stereo unspecified) .
-1

Recorded test call requested for CCOc1ccc(C(C(=O)NCCOC)N(CCOC)C(=O)CCC(=O)Nc2ccccn2)cc1 (stereo unspecified)
1

Assay outcome for COc1ccc(Cn2c(-c3ccc(Cl)cc3)c[n+]3ccccc23)cc1 : what was it?
-1

Write down the call the test reported for this compound. Item: Cc1ccc(S(=O)(=O)NCC(=O)N(CC(=O)NCC2CCCO2)c2cccc(F)c2)cc1 (stereo unspecified)
-1

Query: recorded result category for O=c1[nH]c(/C=C\c2cccc(C(F)(F)F)c2)nc(O)c1[N+](=O)[O-] in this test
1

Recorded call for CCOC(=O)C1=C(O)/C(=C/c2ccc(OCC(=O)Nc3ccc(C)cc3)cc2)N=C1C ?
-1

Which result was noted for this compound in the test: CCOC(=O)c1nnn(-c2nc(OC)nc(N(C)C)n2)c1-c1ccccc1
1

Returns: the outcome recorded for CCOC(=O)c1c(N)nn(C(=O)c2ccccc2)c1-c1ccccc1 in this assay.
-1

Data provenance is PubChem BioAssay AID1800.
